- experimental details: NCI Yeast Anticancer Drug Screen. Data for the CLN2oe strain (AID 163)
- measurement context: S. cerevisiae CLN2oe strain, at 100.0 µM
The panel holds about 79,000 compounds, 15% with a hit somewhere; the sample as a whole holds those more often. The source made the active and inactive calls. Rule as the data show it: active = growth inhibition above about 70%; inactive = the rest.
Mark one answer only. Choices: active, inactive

[
  {
    "compound": "O=P(C(=S)Nc1c(Cl)cccc1Cl)(c1ccccc1)c1ccccc1",
    "group label": "active"
  }
]

Recorded call for "CCCCCCNCCCNc1c2ccccc2nc2cccc([N+](=O)[O-])c12" ?
active

Recorded call for "CS(=O)(=O)O.[Ag]" ?
active

Recorded call for "O=C1C=C(NCCc2cc(Br)c(O)c(Br)c2)C(=O)c2ncccc21" ?
active

Recorded call for "CC1=CC(=O)C=CC1=Nc1cc(Cl)c(O)c(Cl)c1" ?
active

Recorded call for "Cc1c2c(nc3ccccc13)C(=O)c1cccnc1C2=O" ?
active

Recorded call for "CC(C)N(CCCNc1c2ccccc2nc2cccc([N+](=O)[O-])c12)C(C)C" ?
active

Recorded call for "O=C1Oc2ccccc2C(=O)/C1=C/N1C(=O)N/C(=C\c2ccccc2Br)C1=O" ?
inactive

Recorded call for "CCOC(=S)SSSC(=S)OCC" ?
active

Recorded call for "O=C(O)/C=C\C(=O)Nc1ccc2c(c1)Cc1cc(Cl)ccc1-2" ?
inactive

Recorded call for O=C(NNc1ccccc1)C(CCCCNS(=O)(=O)Cc1ccccc1)NS(=O)(=O)Cc1ccccc1 (stereo unspecified) ?
inactive
